# Test system: SW-620
# PROCEDURE TEXT: NCI tumour cell line growth inhibition, 48 h
Calls of active or inactive are those of the source. Rule as the data show it: active = GI50 up to about 1.1 µM and inactive = higher. Where a SMILES comes first, the peptide text is derived from it. [ ]: non-standard residue; d: D form. The star is where a group is joined. Bn2Val = CC(C)[C@@H](C(=O)*)N(Cc1ccccc1)Cc1ccccc1; NH(4-F-benzyl) = Fc1ccc(CN*)cc1; NMeV = CN[C@H](C(=O)O)C(C)C; dNMeA = CN[C@H](C)C(=O)O
Exercise: state measured GI50 for each of the molecules provided.

stdin: Give me measured GI50, please, for this molecule: `C#CC[C@@]12CC(=O)C[C@@H]1CCC1(C2)OCCO1.C#CC[C@]12CC(=O)CC[C@H]1CC(=O)C2`
stdout: > 100 µM (inactive)

stdin: Read the entry `CC1(C)Cc2c(sc3[nH]c(=S)[nH]c(=S)c23)CS1` and write its reported GI50.
stdout: 53.1 µM (inactive)

stdin: Report measured GI50; entry is CC(C)[C@H](NC(=O)[C@H](C(C)C)N(Cc1ccccc1)Cc1ccccc1)C(=O)N(C)[C@H](C(=O)N1CCC[C@H]1C(=O)N(C)[C@H](C)C(=O)NCc1ccc(F)cc1)C(C)C (Bn2Val-V[NMeV]P[dNMeA]-{NH(4-F-benzyl)})
stdout: 4.25 µM (inactive)

stdin: Give GI50 for `COc1cc(Nc2nc3cc(C)ccc3nc2-c2ccccc2)cc(OC)c1OC`
stdout: 58.1 µM (inactive)
